system: L-1210 leukemia; assay: Anti-tumor action to L-1210 leukemia; format: in vivo, BDF1 female mice; conditions: Mus musculus, L1210; oral, 250 mg/kg/day × 3 (1st, 5th, 9th day); read-out: L-1210 ILS
Outcome label depends on ILS at 250 mg/kg/day relative to 40%: at/above gives true, below gives false.

// known answers, use as guide
>  <query_smiles>
CC(C)[Si](C)(C)CCSCCNC(=O)n1cc(F)c(=O)[nH]c1=O

>  <classification>
true

$$$$
>  <query_smiles>
CC[Si](CC)(CC)CCSCCNC(=O)n1cc(F)c(=O)[nH]c1=O

>  <classification>
false

$$$$

Problem: Does ILS at 250 mg/kg/day meet or surpass 40% for CC(C)(C)[Si](C)(C)CCCSCCCNC(=O)n1cc(F)c(=O)[nH]c1=O ?
Solution: false

Problem: Answer whether ILS at 250 mg/kg/day of CC(C)[Si](C)(C)CCSCCCNC(=O)n1cc(F)c(=O)[nH]c1=O is greater than or equal to 40%.
Solution: true

Problem: Could you tell me if the measured ILS at 250 mg/kg/day of CC(C)[Si](C)(C)CCCSCCNC(=O)n1cc(F)c(=O)[nH]c1=O reaches 40% or more?
Solution: false

Problem: Say whether CCCC[Si](C)(C)CCCSCCCNC(=O)n1cc(F)c(=O)[nH]c1=O shows ILS at 250 mg/kg/day of 40% or more.
Solution: false

Problem: Determine whether measured ILS at 250 mg/kg/day meets or exceeds 40% for CCCC[Si](C)(C)CCSCCNC(=O)n1cc(F)c(=O)[nH]c1=O
Solution: false

* * *

system: L-1210 leukemia; experiment: Anti-tumor action to L-1210 leukemia; type: in vivo, BDF1 female mice; conditions: Mus musculus, L1210; oral, 500 mg/kg/day × 3 (1st, 5th, 9th day); read-out: L-1210 ILS
measured_metric: ILS at 500 mg/kg/day (%)
Answers are plain numbers, in %.

Recorded results for 3 molecules are shown here.
>  <query_smiles>
C[Si](C)(CCSCCNC(=O)n1cc(F)c(=O)[nH]c1=O)c1ccccc1

>  <assay_system>
L-1210 leukemia

>  <measured_metric>
ILS at 500 mg/kg/day

>  <u>
%

>  <observed_result>
82

$$$$
>  <query_smiles>
CC(C)(C)[Si](C)(C)CCCSCCCNC(=O)n1cc(F)c(=O)[nH]c1=O

>  <assay_system>
L-1210 leukemia

>  <measured_metric>
ILS at 500 mg/kg/day

>  <u>
%

>  <observed_result>
68

$$$$
>  <query_smiles>
C[Si](C)(C)CCSCCCNC(=O)n1cc(F)c(=O)[nH]c1=O

>  <assay_system>
L-1210 leukemia

>  <measured_metric>
ILS at 500 mg/kg/day

>  <u>
%

>  <observed_result>
70

$$$$

Could you report ILS at 500 mg/kg/day for every entry in the following list?
1. CCCC[Si](C)(C)CCSCCNC(=O)n1cc(F)c(=O)[nH]c1=O
2. CCCCCCCC[Si](C)(C)CCSCCNC(=O)n1cc(F)c(=O)[nH]c1=O

Solution:
[73, 38]

Can you give me ILS at 500 mg/kg/day for all of these, one by one?
1. CC(C)[Si](C)(C)CCCSCCCNC(=O)n1cc(F)c(=O)[nH]c1=O
2. CC(C)[Si](C)(C)CCCSCCNC(=O)n1cc(F)c(=O)[nH]c1=O
3. CC(C)(C)[Si](C)(C)CCCSCCNC(=O)n1cc(F)c(=O)[nH]c1=O

Solution:
81
70
67

Problem: Item under review: C[Si](C)(C)CCCSCCCNC(=O)n1cc(F)c(=O)[nH]c1=O . Reported ILS at 500 mg/kg/day?
Solution: 111
